# System: HCI-017.E2 (organoid from an ER-positive breast cancer xenograft)
# assay comment: CTG-3D luminescence at 96 h relative to day-0 seeding control (ratio to day 0); higher = more growth / less cytotoxicity; PDxO 3D drug screen (set 2), 96 h, CTG-3D normalised to day-0 seeding control.
# protocol conditions: 100 µM; days in culture: 85
measured metric: CTG-3D luminescence at 96 h
Please state the value as a number alone, without comment.

Example entries and their recorded answers appear below.
- substance smiles: "Nc1cc(C(F)(F)F)c(-c2cc(N3CCOCC3)nc(N3CCOCC3)n2)cn1"
  value: 0.256
- substance smiles: "O=C(c1cc(Cc2n[nH]c(=O)c3ccccc23)ccc1F)N1CCN(C(=O)C2CC2)CC1"
  value: 0.204
- substance smiles: "CO[C@H]1C[C@@H]2CC[C@@H](C)[C@@](O)(O2)C(=O)C(=O)N2CCCC[C@H]2C(=O)O[C@H]([C@H](C)C[C@@H]2CC[C@@H](OCCO)[C@H](OC)C2)CC(=O)[C@H](C)/C=C(\\C)[C@@H](O)[C@@H](OC)C(=O)[C@H](C)C[C@H](C)/C=C/C=C/C=C/1C"
  value: 0.00146

Tell me its CTG-3D luminescence at 96 h given `CC(=O)O[C@@]12CO[C@@H]1C[C@H](O)[C@@]1(C)C(=O)[C@H](O)C3=C(C)[C@@H](OC(=O)[C@H](O)[C@@H](NC(=O)OC(C)(C)C)c4ccccc4)C[C@@](O)([C@@H](OC(=O)c4ccccc4)[C@H]21)C3(C)C` as the entry. 0.154
